molecular target: TEAD3 (Homo sapiens); experiment: Thermal shift assay TEAD3; format: binding
Sequence (Q99594 whole entry, species assumed): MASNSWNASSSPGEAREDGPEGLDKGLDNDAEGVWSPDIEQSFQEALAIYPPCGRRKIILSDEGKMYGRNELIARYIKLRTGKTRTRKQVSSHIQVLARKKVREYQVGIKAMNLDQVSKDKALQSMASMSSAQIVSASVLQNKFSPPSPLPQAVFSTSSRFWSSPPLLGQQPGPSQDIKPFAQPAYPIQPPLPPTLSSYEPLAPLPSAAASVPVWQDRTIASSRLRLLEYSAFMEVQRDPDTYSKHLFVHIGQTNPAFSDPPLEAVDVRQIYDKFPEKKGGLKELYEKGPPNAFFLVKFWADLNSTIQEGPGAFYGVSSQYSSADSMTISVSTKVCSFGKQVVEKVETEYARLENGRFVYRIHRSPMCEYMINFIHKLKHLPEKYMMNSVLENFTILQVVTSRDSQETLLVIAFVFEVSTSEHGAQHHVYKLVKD
QUANTITY: TEAD3 ΔTm (°C)

Below are worked cases with known answers.
CC(NC(=O)[C@@H]1C[C@H]1c1cc(-c2ccc(C(F)(F)F)cc2)cc2c1cnn2C)c1ccccn1 (mixture of isomers) [Example 28]    0.5
Cn1cc2nc(Oc3ccc(C(F)(F)F)cc3)nc([C@H]3C[C@@H]3C(=O)N3CC(O)C3)c2n1 (single isomer, unassigned) [Example 109b]    0.9
O=C(O)[C@@H]1CC1c1cc(Oc2ccc(C(F)(F)F)cc2)cc2cccnc12 (mixture of isomers) [Example 17]    11.7
Cn1cc2cc(Oc3ccc(C(F)(F)F)cn3)cc([C@H]3C[C@@H]3C(=O)N3CC(O)C3)c2n1 (single isomer, unassigned) [Example 88b]    2.6

[I] Cn1cc2cc(Oc3ccc(C(F)(F)F)cc3)cc([C@@H]3C[C@H]3C(=O)O)c2n1 (single isomer, unassigned) [Example 16a]
[II] Cn1cc2cc(Oc3ccc(C(F)(F)F)cc3)cc([C@@H]3C[C@H]3C(=O)NCC#N)c2n1 (single isomer, unassigned) [Example 66]
[III] O=C(O)[C@@H]1CC1c1cc(-c2ccc(C(F)(F)F)cc2)cc2scnc12 (mixture of isomers) [Example 14]
[IV] Cn1cc2cc(Oc3ccc(C(F)(F)F)cc3)cc(C3C[C@H]3C(=O)N3CCP(C)(=O)CC3)c2n1 (single isomer, unassigned) [Example 111]
INPUT: Sort entries by TEAD3 ΔTm from minimum to maximum value. Kindly provide the labels arranged according to the requested ordering.
OUTPUT: III, IV, I, II

[1] Cn1cc2cc(Oc3ccc(C(F)(F)F)cc3)cc(C3C[C@H]3C(=O)N3CC(C(=O)O)C3)c2n1 (single isomer, unassigned) [Example 113]
[2] C[C@@H](C#N)NC(=O)[C@@H]1C[C@H]1c1cc(Oc2ccc(C(F)(F)F)cc2)cc2cn(C)nc12 (single isomer, unassigned) [Example 69]
INPUT: # query: argmin of TEAD3 ΔTm over 1 and 2 Select an item and report its label.
OUTPUT: 1

[a] Cn1cc2cc(Oc3ccc(C(F)(F)F)cc3)cc([C@@H]3C[C@H]3C(=O)N3CCC34CC(O)C4)c2n1 (single isomer, unassigned) [Example 136]
[b] Cn1cc2cc(Oc3ccc(C(F)(F)F)cc3)cc(C3C[C@H]3C(=O)N3CCC(O)CC3)c2n1 (single isomer, unassigned) [Example 74]
[c] Cn1cc2cc(Oc3ccc(C(F)(F)F)cc3)cc(C3C[C@H]3C(=O)N3CC4(CC(O)C4)C3)c2n1 (single isomer, unassigned) [Example 97]
[d] Cn1cc2cc(Oc3ccc(C(F)(F)F)cc3)cc(C3C[C@H]3C(=O)NC[C@H]3C[C@@H](O)[C@@H](O)C3O)c2n1 (single isomer, unassigned) [Example 107]
[e] CNC(=O)[C@@H]1CC1c1cc(OCc2ccc(C(F)(F)F)cc2)cc2c1cnn2C (mixture of isomers) [Example 37]
INPUT: Rank the 5 molecules: largest TEAD3 ΔTm first, smallest last. Kindly provide the labels arranged according to the requested ordering.
OUTPUT: b, c, a, d, e
(b: 11.4 °C, c: 7.6 °C, a: 1.7 °C, d: 1.1 °C, e: 0.1 °C)

[1] Cn1cc2cc(OC3CC4(C3)CC(F)(F)C4)cc(C3C[C@H]3C(=O)O)c2n1 (mixture of isomers) [Example 93]
[2] [2H]C([2H])([2H])NC(=O)[C@H]1CC1c1cc(Oc2ccc(C(F)(F)F)cc2)cc2cn(C)nc12 (single isomer, unassigned) [Example 53]
[3] CO[C@@H]1CN(C(=O)[C@@H]2C[C@H]2c2cc(Oc3ccc(C(F)(F)F)cc3)cc3cn(C)nc23)C[C@H]1O (single isomer, unassigned) [Example 112b]
INPUT: Rank the 3 molecules: largest TEAD3 ΔTm first, smallest last. Kindly provide the labels arranged according to the requested ordering.
OUTPUT: 2, 3, 1

[A] Cn1cc2cc(Oc3ccc(C(F)(F)F)cc3)cc([C@@H]3C[C@H]3C(=O)N=S(C)(C)=O)c2n1 (single isomer, unassigned) [Example 134]
[B] Cn1cc2cc(Oc3ccc(C(F)(F)F)cc3)cc([C@@H]3C[C@H]3C(=O)N3CC[C@H](O)[C@@H](O)C3)c2n1 (single isomer, unassigned) [Example 75a]
INPUT: # query: argmin of TEAD3 ΔTm over A and B Select an item and report its label.
OUTPUT: A

[A] Cn1cc2cc(Oc3ccc(C(F)(F)F)cc3)cc(C3C[C@H]3C(=O)O)c2n1 (mixture of isomers) [Example 16]
[B] Cn1cc2cc(Oc3ccc(C(F)(F)F)cc3)cc(C3C[C@H]3C(=O)N3C[C@H]4C[C@@H]3C[C@H]4O)c2n1 (single isomer, unassigned) [Example 103e]
[C] CNC(=O)[C@@H]1CC1c1cc(Oc2ccc(C(F)(F)F)cc2)cc2cn(C(F)F)nc12 (mixture of isomers) [Example 79]
INPUT: Rank the 3 molecules: largest TEAD3 ΔTm first, smallest last. Kindly provide the labels arranged according to the requested ordering.
OUTPUT: A, B, C

[I] Cn1cc2cc(Oc3ccc(C(F)(F)F)cc3)cc(C3C[C@H]3C(=O)N3CCC[C@@H]3C#N)c2n1 (single isomer, unassigned) [Example 72]
[II] CNC(=O)[C@@H]1CC1c1cc(-c2ccc(C(F)(F)F)cc2)cc2c1=NC(C)N=2 (mixture of isomers) [Example 22]
INPUT: # query: argmin of TEAD3 ΔTm over I and II Select an item and report its label.
OUTPUT: II
